Quick reference: GI50 at 72 h of the listed items.
- assayComment: MTT growth inhibition assay
- Assay type: cell-based
- conditionLabel: human, MCF-7 breast cancer cells, MCF-7, MTT

# smilesCode, GI50 at 72 h
rows = [
    ("O=C(N/N=C/c1cc(O)c(O)cc1O)c1cc2ccccc2cc1O", "> 50 µM"),
    ("O=C(N/N=C/c1cccc(O)c1O)c1cc2ccccc2cc1O", "> 50 µM"),
]

Consider now this further molecule.
Reported GI50 at 72 h for `O=C(N/N=C/c1ccc(O)c(O)c1)c1cc2ccccc2cc1O` : what is it?
14 µM

====

- assayComment: MTT growth inhibition assay
- Type: cell-based
- conditionLabel: human, BE2-C neuroblastoma cells
readoutLabel: GI50 at 72 h

Here's what some known entries look like.
# smilesCode, readoutLabel, result
records = [
    ("O=C(N/N=C/c1ccc(O)c(O)c1)c1cc2ccccc2cc1O", "GI50 at 72 h", "8.6 µM"),
    ("O=C(N/N=C/c1cccc(O)c1O)c1cc2ccccc2cc1O", "GI50 at 72 h", "> 50 µM"),
]

Reported GI50 at 72 h for `O=C(N/N=C/c1cc(O)c(O)cc1O)c1cc2ccccc2cc1O` : what is it?
> 50 µM

====

- testedTarget: AP-2 alpha ear binding to amphiphysin 1 (Mus musculus, UniProt P17427)
- Sequence (P17427 702-938): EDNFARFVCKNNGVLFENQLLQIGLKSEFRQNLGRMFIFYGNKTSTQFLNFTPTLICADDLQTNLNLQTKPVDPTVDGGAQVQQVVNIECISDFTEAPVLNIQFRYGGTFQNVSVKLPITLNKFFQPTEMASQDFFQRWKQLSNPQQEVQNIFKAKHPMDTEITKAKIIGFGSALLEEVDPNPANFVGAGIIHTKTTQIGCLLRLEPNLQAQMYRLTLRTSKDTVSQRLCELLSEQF
readoutLabel: IC50 (µM)
Only the number, expressed in µM, is required.

Reported IC50 for `O=C(N/N=C/c1cc(O)c(O)cc1O)c1cc2ccccc2cc1O` : what is it?
362

====

- testedTarget: recombinant rat dynamin II (Rattus norvegicus, UniProt P39052)
- Sequence (P39052 whole entry): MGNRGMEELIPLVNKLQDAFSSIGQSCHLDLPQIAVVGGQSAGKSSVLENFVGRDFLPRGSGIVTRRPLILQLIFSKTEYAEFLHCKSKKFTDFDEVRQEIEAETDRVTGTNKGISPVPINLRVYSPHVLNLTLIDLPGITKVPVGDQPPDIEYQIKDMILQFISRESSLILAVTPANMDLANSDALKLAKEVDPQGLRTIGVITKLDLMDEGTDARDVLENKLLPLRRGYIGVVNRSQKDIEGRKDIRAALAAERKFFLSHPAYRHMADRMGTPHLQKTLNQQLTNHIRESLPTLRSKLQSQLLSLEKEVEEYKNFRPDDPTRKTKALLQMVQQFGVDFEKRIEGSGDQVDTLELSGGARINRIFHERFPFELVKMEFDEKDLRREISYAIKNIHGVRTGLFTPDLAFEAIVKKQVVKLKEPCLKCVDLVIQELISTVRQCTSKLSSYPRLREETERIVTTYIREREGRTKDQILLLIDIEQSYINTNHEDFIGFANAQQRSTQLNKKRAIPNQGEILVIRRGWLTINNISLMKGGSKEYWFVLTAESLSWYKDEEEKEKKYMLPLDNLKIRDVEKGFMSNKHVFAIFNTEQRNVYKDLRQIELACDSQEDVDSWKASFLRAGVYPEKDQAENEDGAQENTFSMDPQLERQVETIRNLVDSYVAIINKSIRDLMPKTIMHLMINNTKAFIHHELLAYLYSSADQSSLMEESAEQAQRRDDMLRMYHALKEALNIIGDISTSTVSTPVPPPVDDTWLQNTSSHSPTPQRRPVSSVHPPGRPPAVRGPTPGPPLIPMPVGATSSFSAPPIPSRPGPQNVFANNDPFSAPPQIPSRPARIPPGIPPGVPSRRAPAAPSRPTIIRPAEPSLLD
- assayComment: Dynamin II GTPase assay (PS-stimulated)
- Type: biochemical
- conditionLabel: Absence of Tween; DynII 50 nM; no unit in table; read-out: IC50 DynII (rec)
readoutLabel: IC50 (nM)
Only the number, expressed in nM, is required.

Reported IC50 for `O=C(N/N=C/c1cc(O)c(O)cc1O)c1cc2ccccc2cc1O` : what is it?
2300

====

Quick reference: pIC50 of the listed items.
- Tested on: rat brain synaptosomes
- assayComment: Synaptic vesicle endocytosis: FM4-64 uptake in synaptosomes
- conditionLabel: read-out: SVE IC50
pIC50 (log units): -log10 of the concentration in mol/L.

# smilesCode, testedTarget, pIC50
rows = [
    ("O=C(N/N=C/c1ccc(O)c(O)c1)c1cc2ccccc2cc1O", "rat brain synaptosomes", 3.74),
    ("O=C(N/N=C/c1cccc(O)c1O)c1cc2ccccc2cc1O", "rat brain synaptosomes", 4.15),
]

Consider now this further compound.
Reported pIC50 for `O=C(N/N=C/c1cc(O)c(O)cc1O)c1cc2ccccc2cc1O` : what is it?
4.57

====

Quick reference: GI50 at 72 h of the listed items.
- assayComment: MTT growth inhibition assay
- Assay type: cell-based
- conditionLabel: human, HT29 colon cancer cells

Here's what some known entries look like.
# molecule, GI50 at 72 h
data = [
    ("O=C(N/N=C/c1ccc(O)c(O)c1)c1cc2ccccc2cc1O [Dynasore]", "12 µM"),
    ("O=C(N/N=C/c1cc(O)c(O)cc1O)c1cc2ccccc2cc1O [4a]", "> 50 µM"),
]

Reported GI50 at 72 h for O=C(N/N=C/c1cccc(O)c1O)c1cc2ccccc2cc1O [6a] : what is it?
> 50 µM
